assay: Chemical stability in phosphate buffer assessed as hydrolysis half life at pH 7.4; assay type: physicochemical
Listed below: t1/2 values for each entry.
The reply should be a number in min, with the unit left off.

Reference set, count: 3
{"smiles notation": "Cc1cn([C@H]2CO[C@@H](COC(=O)[C@@H](N)Cc3c[nH]c4ccccc34)O2)c(=O)[nH]c1=O.Cl", "measurement unit": "min", "t1/2": 420}
{"smiles notation": "CCCCC(=O)OC[C@@H]1OC[C@H](n2cc(C)c(=O)[nH]c2=O)O1", "measurement unit": "min", "t1/2": 3180}
{"smiles notation": "CC(=O)OC[C@@H]1OC[C@H](n2cc(C)c(=O)[nH]c2=O)O1", "measurement unit": "min", "t1/2": 2650}

Problem: Which t1/2 is reported for this compound? `Cc1cn([C@H]2CO[C@@H](COC(=O)[C@H](N)C(C)C)O2)c(=O)[nH]c1=O.Cl`
Solution: 1800

Problem: Would you mind doing `Cc1cn([C@H]2CO[C@@H](COC(=O)[C@@H](N)Cc3ccccc3)O2)c(=O)[nH]c1=O.Cl` as well?
Solution: 1070

Problem: Same read-out for `Cc1cn([C@H]2CO[C@@H](COC(=O)C(C)(C)C)O2)c(=O)[nH]c1=O` ?
Solution: 2780

====

assay: Chemical stability in phosphate buffer assessed as hydrolysis half life at pH 7.4; type: physicochemical
Each record here notes measured t1/2.
Number in h, nothing else.

{"smiles notation": "Cc1cn([C@H]2CO[C@@H](COC(=O)[C@H](N)Cc3ccccc3)O2)c(=O)[nH]c1=O.Cl", "measurement unit": "h", "obs value": 15.7}
{"smiles notation": "Cc1cn([C@H]2CO[C@@H](COC(=O)[C@@H](N)C(C)C)O2)c(=O)[nH]c1=O.Cl", "measurement unit": "h", "obs value": 36.67}

Problem: I am curious: what t1/2 value has been reported for `Cc1cn([C@H]2CO[C@@H](COC(=O)[C@@H](N)CCC(=O)O)O2)c(=O)[nH]c1=O.Cl` ?
Solution: 4

Problem: How about this molecule: `Cc1cn([C@H]2CO[C@@H](COC(=O)[C@@H](N)CC(C)C)O2)c(=O)[nH]c1=O.Cl`
Solution: 35.83

Problem: Entry `Cc1cn([C@H]2CO[C@@H](COC(=O)CN)O2)c(=O)[nH]c1=O.Cl` please
Solution: 22

Problem: Next up: `Cc1cn([C@H]2CO[C@@H](COC(=O)C3CC3)O2)c(=O)[nH]c1=O`
Solution: 46.67

Problem: Queued: `Cc1cn([C@H]2CO[C@@H](COC(=O)C(C)(C)N)O2)c(=O)[nH]c1=O.Cl`
Solution: 31.17

Problem: Would you mind doing `Cc1cn([C@H]2CO[C@@H](COC(=O)[C@H](C)N)O2)c(=O)[nH]c1=O.Cl` as well?
Solution: 26.67

Problem: What do we get for `CC[C@H](C)[C@H](N)C(=O)OC[C@@H]1OC[C@H](n2cc(C)c(=O)[nH]c2=O)O1.Cl` ?
Solution: 34

Problem: Same question for `Cc1cn([C@H]2CO[C@@H](COC(=O)C3CCCCC3)O2)c(=O)[nH]c1=O` please.
Solution: 53.33

Problem: Next record, please: `CCCCCCCC(=O)OC[C@@H]1OC[C@H](n2cc(C)c(=O)[nH]c2=O)O1`
Solution: 54.17

Problem: Please answer likewise for `Cc1cn([C@H]2CO[C@@H](COC(=O)[C@@H]3CCCN3)O2)c(=O)[nH]c1=O.Cl`
Solution: 6.33
